Assay: activity coefficient (dimensionless); of the first substance listed, at infinite dilution; xn = mol fraction of the nth substance listed
Conditions: 333.15 K; 101.33 kPa; Liquid; Chromatography; x1 = 0
List of activity coefficient values.

compound	activity coefficient
Cc1cccc(C)c1 [1,3-dimethylbenzene] + CCCCCCn1cc[n+](C)c1C.O=S(=O)([N-]S(=O)(=O)C(F)(F)F)C(F)(F)F	1.41
Cc1ccccc1 [toluene] + CCCCCCn1cc[n+](C)c1C.O=S(=O)([N-]S(=O)(=O)C(F)(F)F)C(F)(F)F	1.01
C1CCCCC1 [cyclohexane] + CCCCCCn1cc[n+](C)c1C.O=S(=O)([N-]S(=O)(=O)C(F)(F)F)C(F)(F)F	4.99
CC#N [acetonitrile] + CCCCCCn1cc[n+](C)c1C.O=S(=O)([N-]S(=O)(=O)C(F)(F)F)C(F)(F)F	0.47
CC1CCCCC1 [methylcyclohexane] + CCCCCCn1cc[n+](C)c1C.O=S(=O)([N-]S(=O)(=O)C(F)(F)F)C(F)(F)F	6.06
CCCCCCCCC [nonane] + CCCCCCn1cc[n+](C)c1C.O=S(=O)([N-]S(=O)(=O)C(F)(F)F)C(F)(F)F	18.1
CCCCCCCCCC [decane] + CCCCCCn1cc[n+](C)c1C.O=S(=O)([N-]S(=O)(=O)C(F)(F)F)C(F)(F)F	23.3
Cc1ccccc1C [1,2-dimethylbenzene] + CCCCCCn1cc[n+](C)c1C.O=S(=O)([N-]S(=O)(=O)C(F)(F)F)C(F)(F)F	1.21
